These measurements were taken from patent US8138357B2.

- Test system: HT-29 STD cells
- assay overview: Cytotoxic effect on epithelial cells seen in the HT-29 experiments
- Format: cell-based, human
- condition: 30 mM, HT-29 cells
measured parameter: cytotoxic effect on epithelial cells

molecule: CC(C)N(c1ccc(O)c(C(=O)O)c1)C(C)C
result: rapid cytotoxic effect

molecule: COc1ccc(N)cc1C(=O)NO [compound 14, 5-amino-N-hydroxy-2-methoxybenzamide]
result: rapid cytotoxic effects

molecule: CCOc1ccc(N)cc1C(=O)NO [compound 26, 5-amino-2-ethoxy-N-hydroxybenzamide]
result: rapid cytotoxic effect

molecule: COc1cc(N)ccc1C(=O)NO [compound 13, 4-amino-N-hydroxy-2-methoxybenzamide]
result: rapid cytotoxic effects
